assay: Displacement of [125I]CCK from Cholecystokinin receptor of guinea pig brain; set-up: species or system Cavia porcellus
pIC50: −log10 of the molar value.
readoutType: pIC50

Please indicate pIC50 recorded for Fc1ccccc1C1=N[C@H](Cc2c[nH]c3ccccc23)c2nnc(-c3ccccc3)n2-c2ccccc21
~4.00

Note down pIC50 recorded for Fc1ccccc1C1=N[C@H](Cc2c[nH]c3ccccc23)c2nncn2-c2ccccc21
~4.00

Output pIC50 of Fc1ccccc1C1=N[C@H](Cc2c[nH]c3ccccc23)c2nnc(C(Cl)(Cl)Cl)n2-c2ccccc21
< 4.00

Specify reported pIC50 for the compound shown: Cc1nnc2n1-c1ccc(Cl)cc1C(c1ccccc1Cl)=NC2
< 4.00

Provide measured pIC50 value, entry: Cc1nnc2n1-c1ccc(Cl)cc1C(c1ccccc1)=NC2
< 4.00
